Target: hP2X7R (full-length wild-type human P2X7 receptor) (Homo sapiens, UniProt Q99572)
Construct: gene P2RX7; full-length wild-type homotrimer; structures: C-terminal GFP, 3C site and His tag, digested with HRV 3C, from HEK293 / HEK293 GNTI- cells; BLI: biotinylated receptor; TEVC: untagged in Xenopus oocytes; calcium influx: 1321N1 cells; ethidium uptake: HEK293 cells
Assay: calcium influx (Fluo-4), […]1 cells
Format: cell-based
Details: agonist BzATP at EC80; allosteric antagonist, classical allosteric site; pH 7.4
QUANTITY KIND: pIC50
Give only the number. pIC50 is defined as minus log10 of concentration in molar units.

Query string: Requested field: pIC50. Item: O=C(NNc1ccccc1Cl)C12CC3CC(CC(C3)C1)C2
Result string: 7.74

---

Target: rP2X7R (full-length wild-type rat P2X7 receptor) (Rattus norvegicus)
Construct: gene P2rx7; full-length wild-type homotrimer; untagged in Xenopus oocytes for TEVC
Sequence (Q64663 whole entry): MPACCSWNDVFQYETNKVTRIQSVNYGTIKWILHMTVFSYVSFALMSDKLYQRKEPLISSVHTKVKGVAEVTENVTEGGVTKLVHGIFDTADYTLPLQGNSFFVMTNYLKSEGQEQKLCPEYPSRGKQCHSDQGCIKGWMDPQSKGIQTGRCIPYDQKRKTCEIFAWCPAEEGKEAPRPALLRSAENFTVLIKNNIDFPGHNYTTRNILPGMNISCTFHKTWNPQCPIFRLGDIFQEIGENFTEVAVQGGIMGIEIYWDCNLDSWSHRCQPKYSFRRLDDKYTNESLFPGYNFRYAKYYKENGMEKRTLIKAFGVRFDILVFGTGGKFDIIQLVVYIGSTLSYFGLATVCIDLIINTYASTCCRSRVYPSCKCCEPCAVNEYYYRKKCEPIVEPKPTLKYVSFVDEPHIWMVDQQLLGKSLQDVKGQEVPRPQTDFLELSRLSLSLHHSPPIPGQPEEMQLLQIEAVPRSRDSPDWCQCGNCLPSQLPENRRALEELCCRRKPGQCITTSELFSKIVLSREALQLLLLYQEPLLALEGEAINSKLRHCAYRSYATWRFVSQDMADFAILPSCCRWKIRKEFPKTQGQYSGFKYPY
Test: calcium influx (Fluo-4), […]1 cells
Assay type: cell-based
Details: agonist BzATP at EC80; pH 7.4
QUANTITY KIND: IC50 (µM)
Report as a plain number; the unit µM is understood.

Query string: Return IC50 measured with rP2X7R (full-length wild-type rat P2X7 receptor) (Rattus norvegicus) given this molecule: CC12CC3CC1(C)C1(C)CC3(C(=O)NNc3ccccc3Cl)CC21C
Result string: 0.0406

---

Target: hP2X7R (full-length wild-type human P2X7 receptor) (Homo sapiens)
Construct: gene P2RX7; full-length wild-type homotrimer; structures: C-terminal GFP, 3C site and His tag, digested with HRV 3C, from HEK293 / HEK293 GNTI- cells; BLI: biotinylated receptor; TEVC: untagged in Xenopus oocytes; calcium influx: 1321N1 cells; ethidium uptake: HEK293 cells
Experiment: ethidium bromide accumulation, HEK293 cells expressing hP2X7R
Format: cell-based
The compounds listed here are annotated with their pIC50.
Give only the number. pIC50 is defined as minus log10 of concentration in molar units.

{"columns": ["COMPOUND", "QUANTITY KIND", "ENDPOINT RESULT"],
 "data": [
  ["CC12CC3CC(C)(C1)CC(C(=O)NNc1ccccc1Cl)(C3)C2", "pIC50", 6.32]
]}

Query string: Return pIC50 measured with hP2X7R (full-length wild-type human P2X7 receptor) (Homo sapiens) given this compound: O=C(NNc1ccccc1Cl)C12C3C4C5C3C1C5C42 (stereo not drawn)
Result string: 6.37

---

Biological target: hP2X7R (full-length wild-type human P2X7 receptor) (Homo sapiens)
Construct: full-length wild-type homotrimer; structures: C-terminal GFP, 3C site and His tag, digested with HRV 3C, from HEK293 / HEK293 GNTI- cells; BLI: biotinylated receptor; TEVC: untagged in Xenopus oocytes; calcium influx: 1321N1 cells; ethidium uptake: HEK293 cells
Sequence (Q99572 1-595): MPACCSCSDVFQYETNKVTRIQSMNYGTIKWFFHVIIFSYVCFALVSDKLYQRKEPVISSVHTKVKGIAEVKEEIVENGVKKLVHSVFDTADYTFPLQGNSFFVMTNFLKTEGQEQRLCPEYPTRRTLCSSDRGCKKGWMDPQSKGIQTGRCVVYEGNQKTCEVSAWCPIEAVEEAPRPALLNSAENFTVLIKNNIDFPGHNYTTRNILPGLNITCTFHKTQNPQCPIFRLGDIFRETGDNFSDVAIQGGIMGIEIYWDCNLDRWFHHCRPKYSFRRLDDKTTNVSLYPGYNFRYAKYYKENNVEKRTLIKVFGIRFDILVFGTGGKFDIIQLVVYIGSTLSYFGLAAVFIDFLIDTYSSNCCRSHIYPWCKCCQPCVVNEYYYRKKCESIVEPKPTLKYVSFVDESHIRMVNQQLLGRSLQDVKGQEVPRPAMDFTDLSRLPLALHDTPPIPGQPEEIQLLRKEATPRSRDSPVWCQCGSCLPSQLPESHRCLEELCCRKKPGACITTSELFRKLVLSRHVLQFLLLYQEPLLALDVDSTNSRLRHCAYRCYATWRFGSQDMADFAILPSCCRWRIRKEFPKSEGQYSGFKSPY
Assay: two-electrode voltage clamp, Xenopus oocytes
QUANTITY KIND: EC50 (µM)
Report as a plain number; the unit µM is understood.

Query string: Requested field: EC50. Item: Nc1ncnc2c1ncn2[C@@H]1O[C@H](COP(=O)(O)OP(=O)(O)OP(=O)(O)O)[C@@H](O)[C@H]1O
Result string: 89
